# TEST: Metabolic stability in mouse liver microsomes assessed as hepatic extraction ratio
# Assay type: ADME, Microsome
# SETUP_CONDITIONS: read-out: Activity
// hepatic extraction ratio lookup, one value per entry
The answer should be a number; do not append a unit.

> print(dat)
                                   compound               metric.name  readout.value
1  CN1C(=O)[C@@H](CN2CCCCC2)C[C@H]1C#Cc1ccc2occc2c1 (relative stereo)  hepatic extraction ratio           0.67

Proceeding to the next compound to report its hepatic extraction ratio.
// hepatic extraction ratio lookup, compound = CN1C(=O)[C@@H](CN2CCCCC2)C[C@H]1C#Cc1ccccc1 (relative stereo) , result: 0.9

Reference source: ChEMBL document CHEMBL1153277
